Each entry below lists one item and its recorded pEC50 value.
Target: T1, human PD-1 ECD/Fc fusion protein (human)
T1 construct: also called huPD-1/Fc; HuPD-1 ECD/Fc
T1 sequence (chain, as listed by the source limits assumed): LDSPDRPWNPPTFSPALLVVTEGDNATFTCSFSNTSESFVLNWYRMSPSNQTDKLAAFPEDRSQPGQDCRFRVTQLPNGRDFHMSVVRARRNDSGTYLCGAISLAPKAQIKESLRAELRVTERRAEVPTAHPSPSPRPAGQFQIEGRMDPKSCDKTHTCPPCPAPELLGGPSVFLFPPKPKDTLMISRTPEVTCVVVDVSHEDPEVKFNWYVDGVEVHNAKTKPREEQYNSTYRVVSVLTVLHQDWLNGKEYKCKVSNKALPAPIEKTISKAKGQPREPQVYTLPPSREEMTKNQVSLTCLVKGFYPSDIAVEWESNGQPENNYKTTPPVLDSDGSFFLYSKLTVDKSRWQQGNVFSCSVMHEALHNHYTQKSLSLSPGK
Assay: ELISA, coated huPD-1/Fc
Protocol: ELISA plates were incubated overnight at 4° C. with 50 μl of the synthetic human PD-1 ECD/Fc fusion protein targets described above diluted in PBS buffer, pH 7.4, at 1 μg/ml. […] Following color development, the reaction was stopped with 1 Normal HCl and absorbance at 450 nm was measured on a SpectraMax M5e plate reader (Molecular Devices; San Jose, Calif., US). […]
pEC50: −log10 of the molar value.

{"BINDER": "mAb709 (antibody, V domains shown, murine hybridoma anti-PD-1 mAb) VH: EVKLVESGGGLVKPGGSLKLSCAASGFTFSFYTMSWVRQTPEKRLEWVATISGGGRDTYYPDSVKGRFTISRDNAKNTLYLHMSSLRSEDTALYYCAGQGGNYLFAYWGQGTLVTVSA VL: DIVMTQSHKFMSTSVGDSVTITCKASQDVNTVVAWYQQKPGQSLKVLISWASTRHTGVPARFTGSGSGTDYTLTISSVQAEDLALYYCQQHYTTPYTFGGGTQLEIK", "pEC50": 11.00}
{"BINDER": "mAb718 (antibody, V domains shown, murine hybridoma anti-PD-1 mAb) VH: QVQLQQSGAELVRPGASVTLSCKASGYTFTDYEMHWAKQTPVHGLEWIGVIEPESGGTVYNQKFKGKAKLTADKSSRTAYMELRSLTSEDSAVYYCTREGFNSDHYFDYWGQGTTLTVSS VL: DVLMTQTPLSLPVSLGDQASISCRSSQNIVHSNGNTYLEWYLQKPGQSPKLLIYKVFNRFSGVPDRFSGSGSGTDFTLKISRVEAEDLGVYYCFQGSHVPYTFGGGTKLEIK", "pEC50": 10.70}
{"BINDER": "mAb715 (antibody, V domains shown, murine hybridoma anti-PD-1 mAb) VH: EVMLVESGGGLLKPGGSLKLSCAASGFTFSSYAMSWVRQTPEKRLEWVATISGGGRDTYYPDSVKGRFTISRDNAKNTLYLQMTSLRSEDTAFYYCAGQGGTYLFASWGQGTLVTVSA VL: DIVMTQSHKFMSTSVGDSVTITCKASQDVNTAVAWYQQKPGQPPKVLIYWASTRHTGVPDRFTGSGSGTDYTLTISSVQAEDLALYYCQQHYTTPYTFGGGTKLEIK", "pEC50": 10.40}
{"BINDER": "mAb714 (antibody, V domains shown, murine hybridoma anti-PD-1 mAb) VH: EVHLQQSGPELVKPGASVKIFCKASGYTFTDNNVEWVKQSHGKSLEWIGDINPNNGDTLYSQYFKDKATLTVDKSSTTAYMELRSLTSEDTGLYYCARGKSDQFDYWGQGTTLTVSS VL: DIQMTQSPASQSASLGESVTITCLASQTIGTWLAWYQQKPGKSPQLLIYAATSLADGVPSRFSGSGSGTKFSFKISSLQGEDFVSYYCQQLYSSPWTFGGGTKLEIK", "pEC50": 10.30}
{"BINDER": "mAb703 (antibody, V domains shown, murine hybridoma anti-PD-1 mAb) VH: DVQLQESGPGLVKPSQSLSLTCSVTGYSITTGYYWNWIRQFPGNKLEWMGYMSYDGNNNYNPSLKNRISITRDTSKNQFLLRLNSVTTEDTATYFCARDRGTTILGGTMDYWGQGTSVTVS VL: SIVMTQTPKFLFVSAGDRVTIACKASQSVSNDVAWYQQKPGQSPKLLIYYAFYRYTGVPDRFTGSGYGTDFTFTISTVQAEDLAVYFCQQDYSSPWTFGGGTKLEIK", "pEC50": 10.30}

All figures here come from patent US20210188980A1.
